B1: TRIB1 (parent)
chain: SYVRSRKRLREEEAARLFKQIVSA

Variants of: B1
Protocol Notes: protein stability index of a GFP-peptide fusion (GPS, HEK-293T) (PSI 1-6); higher = more stable;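 further: lentivirally expressed fusions sorted by FACS into six bins by GFP to DsRed ratio, PSI derived from sequencing read proportions per bin multiplied by bin number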
Condition: c terminus: a fixed tail appended
Decide by protein stability index: equal to or exceeding 2 means Met, less means Not met.

Would you please look over these solved cases?
• L17H = Met
• L17R = Met
• R4E = Met

Exam item: Check if protein stability index >= 2 (inclusive). Item: `F18Y`
Marked response: Met

Exam item: Check if protein stability index >= 2 (inclusive). Item: `V3W`
Marked response: Not met

Exam item: Check if protein stability index >= 2 (inclusive). Item: `K7I`
Marked response: Not met

Exam item: Check if protein stability index >= 2 (inclusive). Item: `V3M`
Marked response: Not met

Exam item: Check if protein stability index >= 2 (inclusive). Item: `E11Y`
Marked response: Not met

Exam item: Check if protein stability index >= 2 (inclusive). Item: `S5M`
Marked response: Not met

Exam item: Check if protein stability index >= 2 (inclusive). Item: `F18S`
Marked response: Met

Exam item: Check if protein stability index >= 2 (inclusive). Item: `K19N`
Marked response: Not met

Exam item: Check if protein stability index >= 2 (inclusive). Item: `Y2V`
Marked response: Met

Exam item: Check if protein stability index >= 2 (inclusive). Item: `I21S`
Marked response: Met
